assay_target: human RXFP1 (Homo sapiens)
Sequence (Q9HBX9 1-757): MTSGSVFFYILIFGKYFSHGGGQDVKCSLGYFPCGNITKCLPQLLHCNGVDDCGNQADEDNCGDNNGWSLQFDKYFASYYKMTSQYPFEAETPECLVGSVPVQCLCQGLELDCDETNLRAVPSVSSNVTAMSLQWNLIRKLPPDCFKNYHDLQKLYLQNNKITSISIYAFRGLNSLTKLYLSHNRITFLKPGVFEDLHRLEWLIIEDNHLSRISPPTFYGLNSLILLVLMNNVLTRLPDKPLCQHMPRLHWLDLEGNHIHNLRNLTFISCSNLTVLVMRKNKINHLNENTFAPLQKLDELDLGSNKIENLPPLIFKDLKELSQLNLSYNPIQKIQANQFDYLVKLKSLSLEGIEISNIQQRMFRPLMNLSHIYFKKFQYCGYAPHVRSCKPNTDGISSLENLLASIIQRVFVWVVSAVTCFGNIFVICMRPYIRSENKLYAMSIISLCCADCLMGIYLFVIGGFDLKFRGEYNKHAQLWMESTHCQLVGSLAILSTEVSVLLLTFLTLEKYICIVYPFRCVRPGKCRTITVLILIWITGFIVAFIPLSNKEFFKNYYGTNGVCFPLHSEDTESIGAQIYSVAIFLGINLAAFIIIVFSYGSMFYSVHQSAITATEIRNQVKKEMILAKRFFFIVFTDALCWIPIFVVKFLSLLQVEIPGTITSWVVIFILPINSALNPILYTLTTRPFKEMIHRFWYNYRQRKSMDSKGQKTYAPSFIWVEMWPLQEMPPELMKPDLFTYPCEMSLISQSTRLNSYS
assay_explanation: hRXFP1 HEK293 cAMP assay (HTRF)
experimental_conditions: HEK293 cells stably expressing human RXFP1; 30 min at rt; intracellular cAMP by HTRF
observed_property: EC50 (nM)

Example cases with answers are listed next.
molecule	readout_unit	EC50
COc1ccc(-n2cc(C(=O)O)cn2)cc1C(=O)Nc1c(C(=O)Nc2ccc(F)c(C(F)(F)F)c2)sc2cc(C(F)(F)F)ccc12	nM	2010
COc1ccc(N2CCC(NCCS(C)(=O)=O)C2)cc1C(=O)Nc1c(C(=O)Nc2ccc(F)c(C(F)(F)F)c2)sc2cc(C(F)(F)F)ccc12 (centres unmarked) [Example 68]	nM	1080
COc1ccc(C2CCN(C(=O)C(C)(C)O)C2)cc1C(=O)Nc1c(C(=O)Nc2ccc(F)c(C(F)(F)F)c2)sc2cc(C(F)(F)F)ccc12 (centres unmarked) [Example 151]	nM	208
COc1ccc(C2CCCN(CCCO)C2)cc1C(=O)Nc1c(C(=O)Nc2ccc(F)c(C(F)(F)F)c2)sc2cc(C(F)(F)F)ccc12 (centres unmarked)	nM	1580
COc1ccc(N2CCC3(C2)CN(C2COC2)C3)cc1C(=O)Nc1c(C(=O)Nc2ccc(F)c(C(F)(F)F)c2)sc2cc(C(F)(F)F)ccc12	nM	1480

1. COc1ccc(CNC(c2ccc(F)c(-c3ccc(OC)c(C(=O)Nc4c(C(=O)Nc5ccc(F)c(C(F)(F)F)c5)sc5cc(C(F)(F)F)ccc45)c3)c2)C(F)(F)F)cc1OC (single isomer, unassigned) [Example 114]
2. COc1ccc(-c2cccc(C(C)(C)O)c2)cc1C(=O)Nc1c(C(=O)Nc2ccc(F)c(C(F)(F)F)c2)sc2cc(C(F)(F)F)ccc12
3. COc1ccc(C(=O)NCC2(S(C)(=O)=O)CC2)cc1C(=O)Nc1c(C(=O)Nc2ccc(F)c(C(F)(F)F)c2)sc2cc(Cl)ncc12
4. COc1ccc(C2=NOC3CC(C(C)(C)O)CC23)cc1C(=O)Nc1c(C(=O)Nc2ccc(F)c(C(F)(F)F)c2)sc2cc(C(F)(F)F)ccc12 (single isomer, unassigned) [Example 56]
Write the entries in order, lowest recorded EC50 first. Reply format: the labels, ordered as requested. 4, 1, 3, 2
(4: 9.5 nM, 1: 22.5 nM, 3: 70 nM, 2: 228 nM)

A. COc1ccc(-c2cccc(S(=O)(=O)N(C)C)c2)cc1C(=O)Nc1c(C(=O)Nc2ccc(F)c(C(F)(F)F)c2)sc2cc(C(F)(F)F)ccc12
B. COc1ccc(C2CCCN(C(=O)C3CCC3)C2)cc1C(=O)Nc1c(C(=O)Nc2ccc(F)c(C(F)(F)F)c2)sc2cc(C(F)(F)F)ccc12 (centres unmarked)
Which entry shows the lesser value of EC50 here, A or B ? Bench note: the answer is the label of the chosen record. B
(B: 186 nM, A: 282 nM)

I. COC(=O)C(=O)N1CCCC(c2ccc(OC)c(C(=O)Nc3c(C(=O)Nc4ccc(F)c(C(F)(F)F)c4)sc4cc(C(F)(F)F)ccc34)c2)C1 (centres unmarked) [Example 80]
II. COc1ccc(-c2cc(C(=O)O)ccc2F)cc1C(=O)Nc1c(C(=O)Nc2ccc(F)c(C(F)(F)F)c2)sc2ccccc12
III. COc1ccc(C(=O)N2CC3(COC3)C2)cc1C(=O)Nc1c(C(=O)Nc2ccc(F)c(C(F)(F)F)c2)sc2cc(C(F)(F)F)ccc12
IV. COc1ccc(C2=NC(C(=O)N3CC(CO)C3)CO2)cc1C(=O)Nc1c(C(=O)Nc2ccc(F)c(C(F)(F)F)c2)sc2cc(C(F)(F)F)ccc12 (centres unmarked)
V. COc1ccc(N2CCCC(C(=O)O)C2)cc1C(=O)Nc1c(C(=O)Nc2ccc(F)c(C(F)(F)F)c2)sc2cc(C(F)(F)F)ccc12 (single isomer, unassigned) [Example 4]
Rank the 5 molecules: largest EC50 first, smallest last. Please list the labels according to the requested order. II, III, V, I, IV
